Hello, the source for this data is ChEMBL document CHEMBL5257132, in case you need it.

Procedure Summary: Apparent permeability of compound in dog MDCK-MDR1 cells by LC-MS/MS analysis
Type: ADME, cell-based, Canis lupus familiaris
Readout Label: Papp
The answer should read as a number with its unit following.

Endpoint output: Papp of Cc1csc([C@@]2(CN)[C@@H]3CN(c4cnc5c(-c6ccc7nn(C)cc7c6Cl)n[nH]c5n4)C[C@@H]32)n1 . Value?
9.2 ×10⁻⁶ cm/s

---

Please go through the items and note down their pIC50.
Test System: Tyrosine-protein phosphatase non-receptor type 11 (Homo sapiens, UniProt Q06124)
Sequence (Q06124 whole entry): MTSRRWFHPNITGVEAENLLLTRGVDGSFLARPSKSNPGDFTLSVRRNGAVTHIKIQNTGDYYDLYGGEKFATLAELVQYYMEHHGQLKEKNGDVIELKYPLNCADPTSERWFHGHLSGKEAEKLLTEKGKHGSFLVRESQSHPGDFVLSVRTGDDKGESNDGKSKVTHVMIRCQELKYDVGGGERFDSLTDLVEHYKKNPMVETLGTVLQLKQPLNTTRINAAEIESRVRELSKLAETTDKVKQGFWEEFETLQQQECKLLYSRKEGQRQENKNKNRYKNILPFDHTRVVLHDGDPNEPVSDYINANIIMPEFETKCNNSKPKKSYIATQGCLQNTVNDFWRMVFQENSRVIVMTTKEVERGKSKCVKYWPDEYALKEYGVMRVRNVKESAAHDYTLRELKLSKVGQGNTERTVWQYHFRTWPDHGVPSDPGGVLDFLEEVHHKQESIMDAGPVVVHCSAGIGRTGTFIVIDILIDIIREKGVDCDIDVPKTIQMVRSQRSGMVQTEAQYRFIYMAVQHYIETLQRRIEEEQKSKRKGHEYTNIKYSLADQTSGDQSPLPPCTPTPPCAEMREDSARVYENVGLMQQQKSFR
Procedure Summary: Allosteric inhibition of recombinant human SHP2 using IRS1 peptide and DiFMUP as substrate incubated for 30 mins followed by DiFMUP addition and measured after 30 mins by fluorescence based microplate reader analysis
# log scale: pIC50 equals minus log10 of the concentration in mol/L

Endpoint output: pIC50 of Cc1csc([C@@]2(CN)[C@@H]3CCN(c4cnc(Sc5cccnc5C(F)(F)F)c(N)n4)C[C@@H]32)n1 . Value?
7.19

Endpoint output: pIC50 of Cc1csc([C@@]2(CN)[C@@H]3CCN(c4nc5nc(Sc6cccnc6C(F)(F)F)cnc5[nH]4)C[C@@H]32)n1 . Value?
8.05

Endpoint output: pIC50 of Cc1csc([C@@]2(CN)[C@@H]3CCN(c4cnc5c(-c6ccc7nc(C)sc7c6Cl)n[nH]c5n4)C[C@@H]32)n1 . Value?
8.70

Endpoint output: pIC50 of Cc1csc([C@]2(CN)[C@@H]3CN(c4cnc5c(-c6cccc(Cl)c6Cl)n[nH]c5n4)CC[C@@H]32)n1 . Value?
6.43
